- target or test system: GABA transporter 4 (Mus musculus, UniProt P31650)
- Sequence (P31650 whole entry): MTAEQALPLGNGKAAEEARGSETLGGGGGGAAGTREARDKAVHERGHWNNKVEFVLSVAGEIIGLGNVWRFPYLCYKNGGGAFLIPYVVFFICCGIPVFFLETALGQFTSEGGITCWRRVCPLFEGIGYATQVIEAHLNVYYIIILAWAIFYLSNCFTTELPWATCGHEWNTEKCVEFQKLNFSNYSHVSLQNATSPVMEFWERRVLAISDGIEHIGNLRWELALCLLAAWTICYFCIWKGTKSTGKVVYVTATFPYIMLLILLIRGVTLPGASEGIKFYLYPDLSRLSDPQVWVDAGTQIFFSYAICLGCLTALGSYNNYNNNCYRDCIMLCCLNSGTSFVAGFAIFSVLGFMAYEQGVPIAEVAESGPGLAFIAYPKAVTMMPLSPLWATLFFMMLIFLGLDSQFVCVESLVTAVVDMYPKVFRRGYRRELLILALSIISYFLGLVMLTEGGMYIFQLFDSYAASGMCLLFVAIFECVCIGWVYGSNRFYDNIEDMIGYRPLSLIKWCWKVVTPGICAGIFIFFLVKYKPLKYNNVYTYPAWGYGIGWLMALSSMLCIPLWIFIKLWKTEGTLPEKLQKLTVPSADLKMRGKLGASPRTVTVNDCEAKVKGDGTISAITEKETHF
- procedure details: Inhibition of mouse GAT4 transfected in HEK293 cells assessed as reduction in [3H]-GABA uptake preincubated for 25 mins followed by [3H]-GABA addition and measured after 4 mins by liquid scintillation counting analysis
- Assay type: cell-based
- test parameters: read-out: pIC50 (converted)
Consider the following compounds; for each one, report its IC50.
Note: state the figure and append the unit.

Problem: Request the reported IC50 associated with CN(CCOCCN1c2ccccc2Sc2ccccc21)C(CCN)C(=O)NCc1ccccc1 (centres undefined)
Result: 15.1 µM

Problem: Request the reported IC50 associated with CN(CCOCCn1c2ccccc2c2ccccc21)C(CCO)C(=O)NCc1ccccc1Cl (centres undefined)
Result: 11.2 µM

Problem: Request the reported IC50 associated with CN(CCOCCn1c2ccccc2c2ccccc21)C(CCN)C(=O)NCc1ccccc1 (centres undefined)
Result: 25.1 µM

Problem: Request the reported IC50 associated with CC(=O)NCCC(C(=O)NCc1ccc(F)cc1)N(C)CCOCCN1c2ccccc2Sc2ccccc21 (centres undefined)
Result: 18.2 µM

Problem: Request the reported IC50 associated with CC(=O)NCCC(C(=O)NCc1ccc(C)cc1)N(C)CCOCCN1c2ccccc2Sc2ccccc21 (centres undefined)
Result: 12.6 µM

Problem: Request the reported IC50 associated with CN(CCOCCn1c2ccccc2c2ccccc21)C(CCN)C(=O)NCc1ccc(F)cc1 (centres undefined)
Result: 18.2 µM

Problem: Request the reported IC50 associated with CN(CCOCCN1c2ccccc2Sc2ccccc21)C(CCO)C(=O)NCc1ccc(F)cc1 (centres undefined)
Result: 13.2 µM

Problem: Request the reported IC50 associated with CC(=O)NCCC(C(=O)NCc1ccc(Cl)cc1)N(C)CCOCCN1c2ccccc2Sc2ccccc21 (centres undefined)
Result: 12.3 µM

Problem: Request the reported IC50 associated with CN(CCOCCn1c2ccccc2c2ccccc21)C(CCN)C(=O)NCc1ccccc1Cl (centres undefined)
Result: 9.33 µM

---

- target or test system: Beta-secretase 1 (Homo sapiens)
- Sequence (P56817 whole entry): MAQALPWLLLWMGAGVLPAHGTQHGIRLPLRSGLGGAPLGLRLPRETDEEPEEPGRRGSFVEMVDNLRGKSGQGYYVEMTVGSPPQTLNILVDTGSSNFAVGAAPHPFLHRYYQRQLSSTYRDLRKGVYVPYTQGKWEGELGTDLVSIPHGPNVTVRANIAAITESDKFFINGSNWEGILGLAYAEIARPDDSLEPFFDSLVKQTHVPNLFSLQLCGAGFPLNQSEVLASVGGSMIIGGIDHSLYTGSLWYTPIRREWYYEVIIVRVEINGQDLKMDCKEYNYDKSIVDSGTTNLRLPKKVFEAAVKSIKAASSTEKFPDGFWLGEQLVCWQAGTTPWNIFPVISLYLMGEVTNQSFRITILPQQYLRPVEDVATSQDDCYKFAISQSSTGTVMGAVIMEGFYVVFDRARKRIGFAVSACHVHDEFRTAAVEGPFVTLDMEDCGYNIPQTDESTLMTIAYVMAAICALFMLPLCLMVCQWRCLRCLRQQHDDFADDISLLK
- test parameters: dose 50.0 µM, time 60.0 min
result type: inhibition

Problem: Request the reported inhibition associated with CN(CCC=C1c2ccccc2CCc2ccccc21)C(CO)C(=O)NCc1ccccc1Cl (stereo unspecified)
Result: 72%

Problem: Request the reported inhibition associated with CC(O)CC(C(=O)NCc1ccccc1)N(C)CC/C=C/c1ccccc1-c1ccccc1 (racemic; form 1)
Result: 36%

Problem: Request the reported inhibition associated with Cc1ccc(CNC(=O)C(CO)N(C)CCC=C2c3ccccc3CCc3ccccc32)cc1 (stereo unspecified)
Result: 59%

Problem: Request the reported inhibition associated with CC(=O)NCCC(C(=O)NCc1ccc(Cl)cc1)N(C)CCC=C1c2ccccc2CCc2ccccc21 (stereo unspecified)
Result: 49%

Problem: Request the reported inhibition associated with CC(=O)NCCC(C(=O)NCc1ccc(F)cc1)N(C)CCOCCN1c2ccccc2Sc2ccccc21 (stereo unspecified)
Result: 45%

Problem: Request the reported inhibition associated with CN(CCC=C1c2ccccc2C=Cc2ccccc21)C(CO)C(=O)NCc1ccccc1 (stereo unspecified)
Result: 29%

---

- procedure details: Inhibition of mouse GAT3 transfected in HEK293 cells assessed as reduction in [3H]-GABA uptake preincubated for 25 mins followed by [3H]-GABA addition and measured after 4 mins by liquid scintillation counting analysis
- Type: cell-based
- test parameters: HEK293; read-out: pIC50 (converted)
result type: IC50
Note: state the figure and append the unit.

Problem: Request the reported IC50 associated with CN(CCOCCN1c2ccccc2Sc2ccccc21)C(CCN)C(=O)NCc1ccccc1 (stereo unspecified)
Result: 10 µM

Problem: Request the reported IC50 associated with CC(=O)NCCC(C(=O)NCc1ccccc1Cl)N(C)CCOCCN1c2ccccc2Sc2ccccc21 (stereo unspecified)
Result: 10.2 µM

Problem: Request the reported IC50 associated with CC(=O)NCCC(C(=O)NCc1ccccc1)N(C)CCOCCN1c2ccccc2Sc2ccccc21 (stereo unspecified)
Result: 11.7 µM

Problem: Request the reported IC50 associated with CN(CCOCCN1c2ccccc2Sc2ccccc21)C(CCO)C(=O)NCc1ccccc1Cl (stereo unspecified)
Result: 26.3 µM

Problem: Request the reported IC50 associated with CN(CCOCCn1c2ccccc2c2ccccc21)C(CCN)C(=O)NCc1ccc(F)cc1 (stereo unspecified)
Result: 17.4 µM

Problem: Request the reported IC50 associated with CC(=O)NCCC(C(=O)NCc1ccc(C)cc1)N(C)CCOCCN1c2ccccc2Sc2ccccc21 (stereo unspecified)
Result: 7.94 µM

Problem: Request the reported IC50 associated with CN(CCOCCN1c2ccccc2Sc2ccccc21)C(CCN)C(=O)NCc1ccc(Cl)cc1 (stereo unspecified)
Result: 6.31 µM

Problem: Request the reported IC50 associated with Cc1ccc(CNC(=O)C(CCO)N(C)CCOCCN2c3ccccc3Sc3ccccc32)cc1 (stereo unspecified)
Result: 8.51 µM

Problem: Request the reported IC50 associated with CN(CCOCCn1c2ccccc2c2ccccc21)C(CCO)C(=O)NCc1ccc(F)cc1 (stereo unspecified)
Result: 16.2 µM

Problem: Request the reported IC50 associated with CC(=O)NCCC(C(=O)NCc1ccc(Cl)cc1)N(C)CCOCCN1c2ccccc2Sc2ccccc21 (stereo unspecified)
Result: 8.91 µM

Problem: Request the reported IC50 associated with CN(CC/C=C/c1ccccc1-c1ccccc1)C(CO)C(=O)NCc1ccccc1 (stereo unspecified)
Result: 17 µM

Problem: Request the reported IC50 associated with CC(O)CC(C(=O)NCc1ccccc1)N(C)CC/C=C/c1ccccc1-c1ccccc1 (racemic; form 1)
Result: 25.1 µM

Problem: Request the reported IC50 associated with CN(CCOCCn1c2ccccc2c2ccccc21)C(CCO)C(=O)NCc1ccccc1Cl (stereo unspecified)
Result: 13.2 µM

Problem: Request the reported IC50 associated with CN(CCOCCN1c2ccccc2Sc2ccccc21)C(CCO)C(=O)NCc1ccc(Cl)cc1 (stereo unspecified)
Result: 7.94 µM

Problem: Request the reported IC50 associated with CN(CC/C=C/c1ccccc1-c1ccc(Cl)cc1Cl)C(CCN)C(=O)NCc1ccccc1 (stereo unspecified)
Result: 6.61 µM

Problem: Request the reported IC50 associated with CC(=O)NCCC(C(=O)NCc1ccc(F)cc1)N(C)CCOCCN1c2ccccc2Sc2ccccc21 (stereo unspecified)
Result: 10.7 µM

---

- target or test system: Acetylcholinesterase (Electrophorus electricus)
- procedure details: Inhibition of electric eel AChE using acetylthiocholine iodide as substrate at 10 uM preincubated for 5 mins followed by substrate addition and measured after 5 mins by DTNB reagent based Ellman's method relative to control
- test parameters: time 10.0 min
Consider the following compounds; for each one, report its inhibition.

Problem: Request the reported inhibition associated with CN(CCC=C1c2ccccc2CCc2ccccc21)C(CCN)C(=O)NCc1ccccc1 (centres undefined)
Result: 15%

Problem: Request the reported inhibition associated with CC(O)CC(C(=O)NCc1ccc(F)cc1)N(C)CC/C=C/c1ccccc1-c1ccccc1 (racemic; form 2)
Result: < 10%

Problem: Request the reported inhibition associated with CC(=O)NCCC(C(=O)NCc1ccc(C)cc1)N(C)CCOCCN1c2ccccc2Sc2ccccc21 (centres undefined)
Result: < 10%

Problem: Request the reported inhibition associated with CN(CCC=C(c1ccccc1)c1ccccc1)C(=O)C1Cc2c([nH]c3ccccc23)CN1 (centres undefined)
Result: 38%

Problem: Request the reported inhibition associated with CN(CCOCCN1c2ccccc2Sc2ccccc21)C(CCN)C(=O)NCc1ccc(F)cc1 (centres undefined)
Result: < 10%

Problem: Request the reported inhibition associated with CN(CC/C=C/c1ccccc1-c1ccccc1)C(CO)C(=O)NCc1ccccc1 (centres undefined)
Result: < 10%

Problem: Request the reported inhibition associated with CN(CCOCCN1c2ccccc2Sc2ccccc21)C(CCN)C(=O)NCc1ccccc1Cl (centres undefined)
Result: 14%

Problem: Request the reported inhibition associated with CC(=O)NCCC(C(=O)NCc1ccccc1Cl)N(C)CCC=C1c2ccccc2CCc2ccccc21 (centres undefined)
Result: < 10%

Problem: Request the reported inhibition associated with CC(=O)NCCC(C(=O)NCc1ccc(Cl)cc1)N(C)CCC=C1c2ccccc2CCc2ccccc21 (centres undefined)
Result: < 10%

Problem: Request the reported inhibition associated with CN(CCOCCn1c2ccccc2c2ccccc21)C(CCO)C(=O)NCc1ccccc1 (centres undefined)
Result: < 10%

Problem: Request the reported inhibition associated with CN(CCC=C1c2ccccc2CCc2ccccc21)C(CCN)C(=O)NCc1ccc(Cl)cc1 (centres undefined)
Result: 33%

Problem: Request the reported inhibition associated with CN(CCOCCn1c2ccccc2c2ccccc21)C(CCN)C(=O)NCc1ccccc1 (centres undefined)
Result: < 10%

Problem: Request the reported inhibition associated with CN(CCC=C1c2ccccc2C=Cc2ccccc21)C(CCO)C(=O)NCc1ccc(F)cc1 (centres undefined)
Result: < 10%

Problem: Request the reported inhibition associated with Cc1ccc(CNC(=O)C(CCN)N(C)CCC=C2c3ccccc3CCc3ccccc32)cc1 (centres undefined)
Result: 15%

Problem: Request the reported inhibition associated with CC(O)CC(C(=O)NCc1ccccc1Cl)N(C)CC/C=C/c1ccccc1-c1ccccc1 (racemic; form 1)
Result: < 10%

Problem: Request the reported inhibition associated with O=C(NC1CCN(C(c2ccccc2)c2ccccc2)CC1)C1CC2c3ccccc3NC2CN1 (centres undefined)
Result: < 10%

Problem: Request the reported inhibition associated with CC(O)CC(C(=O)NCc1ccc(F)cc1)N(C)CC/C=C/c1ccccc1-c1ccccc1 (racemic; form 1)
Result: < 10%

Problem: Request the reported inhibition associated with CN(CCC=C1c2ccccc2CCc2ccccc21)C(CCN)C(=O)NCc1ccccc1Cl (centres undefined)
Result: 28%

Problem: Request the reported inhibition associated with CN(CCC=C1c2ccccc2CCc2ccccc21)C(CCO)C(=O)NCc1ccccc1 (centres undefined)
Result: < 10%

From: ChEMBL document CHEMBL5335794
